For reference, pKi measured on purified human autoBACE-2 (Homo sapiens (Human)):
# pKi = -log10(concentration in molar units)

Some compounds with known pKi results, for comparison:
>>> df
                    structure_smiles_string  test_readout  number
0  CN1C(=N)N[C@@]2(CCOc3ccc(NC(=O)c4ncc(Cl)cc4F)cc32)CS1(=O)=O           pKi    8.05
1  CN1C(=N)N[C@@]2(CCCc3ccc(NC(=O)c4cnc(OCC(F)(F)F)cn4)cc32)CS1(=O)=O           pKi    6.29
2  CN1C(=N)N[C@@]2(CCCc3ccc(NC(=O)c4cn5cc(C#N)ccc5n4)cc32)CS1(=O)=O           pKi    5.95
3  CN1C(=N)N[C@@]2(CCOc3ccc(NC(=O)c4ccc(F)cn4)cc32)CS1(=O)=O           pKi    7.51

Let's switch to this compound now.
// pKi lookup, key: CN1C(=N)N[C@@]2(CCCc3ccc(NC(=O)c4cnc(C(F)(F)F)cn4)cc32)CS1(=O)=O
6.16

---

- test_system: soluble human BACE1 catalytic domain (Homo sapiens (Human))
- Sequence (P56817 75-416): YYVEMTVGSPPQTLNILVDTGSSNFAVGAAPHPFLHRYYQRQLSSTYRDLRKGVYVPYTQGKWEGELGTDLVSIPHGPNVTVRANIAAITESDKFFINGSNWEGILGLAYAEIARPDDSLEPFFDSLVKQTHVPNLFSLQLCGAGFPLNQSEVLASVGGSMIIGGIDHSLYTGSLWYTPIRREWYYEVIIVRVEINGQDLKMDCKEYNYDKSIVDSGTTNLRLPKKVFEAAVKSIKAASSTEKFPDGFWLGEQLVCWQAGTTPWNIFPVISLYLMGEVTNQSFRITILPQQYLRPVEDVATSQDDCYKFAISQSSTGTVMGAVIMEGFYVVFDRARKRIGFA
- test_method_notes: BACE1 HTRF FRET Assay
- Type: biochemical
- test_context: Ki calculated from IC50 using the Cheng-Prusoff equation; QSY7-APPswe-Eu substrate, pH 5.0
- Description: Na^+-Acetate pH 5.0; 1% Brij-35; Glycerol; Dimethyl Sulfoxide (DMSO); Recombinant human soluble BACE1 catalytic domain (>95% pure); APP Swedish mutant peptide substrate (QSY7-APP^swe-Eu): QSY7-EISEVNLDAEFC-Europium-amide. A homogeneous time-resolved FRET assay can be used to determine IC50 values for inhibitors of the soluble human BACE1 catalytic domain. […]
test_readout: Ki (nM)
Give the value, in units of nM, as a plain number.

Field: example entries. Status: answers known.
In [3]: df
Out[3]:
                    structure_smiles_string  test_readout  units  number
0  CN1C(=N)N[C@@]2(CCOc3ccc(NC(=O)c4ccc(Cl)cn4)cc32)CS1(=O)=O            Ki     nM      70
1  CN1C(=N)N[C@@]2(CCCc3ccc(NC(=O)C(F)F)cc32)CS1(=O)=O            Ki     nM    2580
2  CN1C(=N)N[C@@]2(CCOc3ccc(NC(=O)c4ccc(OC(F)(F)F)cn4)cc32)CS1(=O)=O            Ki     nM      52

GET /values?readout=Ki&item= COCC(=O)Nc1ccc2c(c1)[C@]1(CCO2)CS(=O)(=O)N(C)C(=N)N1
2010

---

Reported pKi for target or system soluble human BACE1 catalytic domain (Homo sapiens (Human), UniProt P56817), by entry.
FYI, pKi means -log10 of a concentration in mol per litre.

In [3]: df
Out[3]:
                    structure_smiles_string  test_readout  number
0  CN1C(=N)N[C@@]2(CCOc3ccc(NC(=O)c4ccc(F)cn4)cc32)CS1(=O)=O           pKi    6.69
1  CN1C(=N)N[C@@]2(CCCc3ccc(NC(=O)c4ccc(Cl)cn4)cc32)CS1(=O)=O           pKi    7.24
2  Cc1cc(C#N)cnc1C(=O)Nc1ccc2c(c1)[C@]1(CCO2)CS(=O)(=O)N(C)C(=N)N1           pKi    7.82
3  COc1ccc(C(=O)Nc2ccc3c(c2)[C@]2(CCC3)CS(=O)(=O)N(C)C(=N)N2)nc1           pKi    6.64
4  CN1C(=N)N[C@@]2(CCOc3ccc(NC(=O)c4ncc(C(F)(F)F)cn4)cc32)CS1(=O)=O           pKi    6.24
5  COc1ccc(C(=O)Nc2ccc3c(c2)[C@]2(COC3)CS(=O)(=O)N(C)C(=N)N2)nc1           pKi    5.94

Notebook: pull reported pKi for soluble human BACE1 catalytic domain (Homo sapiens (Human), UniProt P56817), entry CN1C(=N)N[C@@]2(CCOc3ccc(NC(=O)c4ccc(C(F)(F)F)cn4)cc32)CS1(=O)=O
7.11

Subsequent entry: CN1C(=N)N[C@@]2(CCOc3ccc(NC(=O)c4cc5ccccn5n4)cc32)CS1(=O)=O
5.83

CN1C(=N)N[C@@]2(CCCc3ccc(NC(=O)c4ccc(F)cn4)cc32)CS1(=O)=O , same question.
6.72

Queued: CN1C(=N)N[C@@]2(CCOc3ccc(NC(=O)c4ccn(C(F)F)n4)cc32)CS1(=O)=O
7.70

Another: COc1cnc(C(=O)Nc2ccc3c(c2)[C@]2(CCO3)CS(=O)(=O)N(C)C(=N)N2)c(C)c1
6.77

Next up: COc1cnc(C(=O)Nc2ccc3c(c2)[C@]2(CCO3)CS(=O)(=O)N(C)C(=N)N2)cn1
6.67

Check CN1C(=N)N[C@@]2(CCOc3ccc(NC(=O)c4ccc(C#N)cn4)cc32)CS1(=O)=O too.
7.59

Next record, please: C#CCOc1ccc(C(=O)Nc2ccc3c(c2)[C@]2(CCC3)CS(=O)(=O)N(C)C(=N)N2)nc1
7.38

Another molecule to check: COc1cnc(C(=O)Nc2ccc3c(c2)[C@]2(CCO3)CS(=O)(=O)N(C)C(=N)N2)c(C)n1
6.53

For CN1C(=N)N[C@@]2(CCCc3ccc(NC(=O)c4cn5cc(C#N)ccc5n4)cc32)CS1(=O)=O then?
6.20
